Catalogue of normalized growth values
# PROTOCOL: chemical genetic growth profiling, strain panel (AID 1159580);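 also: tested at 20 µM; growth read once vehicle control cultures reached saturation at 30 °C; 1 = growth at the plate median or of vehicle wells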
# MEASUREMENT PARAMETERS: S. cerevisiae deletion strains, growth OD, locus YML070W, strain DAK1, stronger effect = lower value
Out of some 5,500 compounds screened, about 2,000 (36%) were called active. Not shown: some 18% with an inconclusive outcome. The list shows a part of the results.
Enter the number alone.

Recorded results for 6 molecules are shown here.
MOLECULE: CCOC(=O)/C(=N/Nc1c(Cl)cccc1Cl)c1csc(N)n1
ASSAY RESULT: 0.889
//
MOLECULE: CCCc1c(C(=O)NNc2cccc(Cl)c2)cnn1-c1ccccc1
ASSAY RESULT: 0.927
//
MOLECULE: O=C1CSC(c2cccnc2)N1c1ccc(Cl)cc1Cl (stereo not drawn)
ASSAY RESULT: 0.939
//
MOLECULE: OC(CNCc1ccc(Cl)cc1)CO/N=C\C1=C(Cl)c2cc(Cl)ccc2OC1 (stereo not drawn)
ASSAY RESULT: 0.924
//
MOLECULE: O=C(NCc1ccncc1)c1ccc(-n2cccn2)cc1
ASSAY RESULT: 0.954
//
MOLECULE: O=c1c(Cl)c(-n2cccn2)cnn1-c1ccc(Cl)cc1Cl
ASSAY RESULT: 0.917

What value of normalized growth has been reported for the following molecule? `Cc1nn(Cc2ccc(C(=O)Sc3ccc(C(F)(F)F)cn3)o2)c(C)c1Br`
0.894

Further, for `N#CC(C#N)=C/C=C(/Sc1ccc(F)c(Cl)c1)c1ccc(Cl)cc1` ?
0.855

---

# PROTOCOL: chemical genetic growth profiling, strain panel (AID 1159580)
# MEASUREMENT PARAMETERS: S. cerevisiae deletion strains, growth OD, locus YKL101W, strain HSL1, stronger effect = lower value
Hit rate of the full screen: of about 5,500 compounds, about 2,000 (36%) were called active. About 18% were inconclusive and are not listed. Some of the results follow.
One threshold, 0.9, splits the recorded normalized growth values: lower ones are T, equal or higher ones are F.

GIVEN SMILES: O=c1c(Cl)c(-n2cccn2)cnn1-c1ccc(Cl)cc1Cl
CLASS NAME: F

GIVEN SMILES: CC(C)c1ccc(N2C=Nc3ccc(C(C)C)cc3C2)cc1
CLASS NAME: F

GIVEN SMILES: COC(=O)C1=C(C)NC(C)=C(C(=O)OC)C1c1ccc(Cl)cc1Cl
CLASS NAME: F

GIVEN SMILES: O=C(NC(=O)c1c(F)cccc1Cl)OCc1ccc(Cl)cc1Cl
CLASS NAME: T

Input `Cc1ccc(S(=O)(=O)CCSC2=CC(=O)CC(C)(C)S2)cc1` ; condition: normalized growth strictly below 0.9. Does it hold?
F

Further, for `NC(=Nc1ccc(F)cc1)SCc1c(Cl)cccc1Cl` ?
F

---

# PROTOCOL: chemical genetic growth profiling, strain panel (AID 1159580);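 also: tested at 20 µM; growth read once vehicle control cultures reached saturation at 30 °C; 1 = growth at the plate median or of vehicle wells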
# MEASUREMENT PARAMETERS: S. cerevisiae deletion strains, growth OD, locus YML016C, strain PPZ1
About 2,000 (36%) of roughly 5,500 compounds were called active. About 18% were inconclusive and are not listed. No stated cut-off is given here; in the data, active means normalized growth mostly below about 0.91 (no sharp cut-off); inconclusive means no clear call, values can overlap the other calls; inactive means mostly above about 0.92. Some of the results follow.
Result category, one only: 1 (active), 0 (inactive)

Check out these entries, answers already filled in.
MOLECULE: NCCNC(=O)c1ccc(Cl)cc1
CLASS NAME: 0

MOLECULE: CCCC(C)C1(CC)C(=O)N=C(S)NC1=O (centres undefined)
CLASS NAME: 0

MOLECULE: O=C(O)c1ccccc1Nc1cccc(C(F)(F)F)c1
CLASS NAME: 0

MOLECULE: Nc1ncnc2c1ncn2C1C[C@H](O)[C@@H](CO)O1 (some centres undefined)
CLASS NAME: 0

MOLECULE: CC(Cc1ccc(O)c(O)c1)C(C)Cc1ccc(O)c(O)c1 (centres undefined)
CLASS NAME: 1

MOLECULE: C=CCC1(C(C)CCC)C(=O)N=C(S)NC1=O (centres undefined)
CLASS NAME: 0

MOLECULE: C/C=C/c1ccc2c(c1)OCO2
CLASS NAME: 0

MOLECULE: CNC[C@@H](O)c1ccc(O)c(O)c1
CLASS NAME: 0

MOLECULE: OC[C@@H]1CCCN2CCCC[C@H]12
CLASS NAME: 0

MOLECULE: CC1(C)C(C(Cl)Cl)C2(Cl)C(Cl)C(Cl)C1(Cl)C2(Cl)Cl (centres undefined)
CLASS NAME: 0

What did this assay record as the result for `N[C@@H](Cc1ccc(O)c(O)c1)C(=O)O` ?
0

Further, for `Nc1ncnc2c1ncn2[C@@H]1O[C@H](CO)[C@@H](O)[C@H]1O` ?
0

Further, for `CS(=O)(=O)CCCCN=C=S` ?
1

Further, for CO[C@H]1/C=C/O[C@@]2(C)Oc3c(C)c(O)c4c(O)c(c(/C=N/N5CCN(C)CC5)c(O)c4c3C2=O)NC(=O)/C(C)=C\C=C\C(C)[C@H](O)[C@@H](C)[C@@H](O)[C@@H](C)[C@@H](OC(C)=O)[C@@H]1C (some centres undefined) ?
0

Further, for CCC(Cc1c(I)cc(I)c(N)c1I)C(=O)O (centres undefined) ?
0

---

# PROTOCOL: chemical genetic growth profiling, strain panel (AID 1159580);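 also: tested at 20 µM; growth read once vehicle control cultures reached saturation at 30 °C; 1 = growth at the plate median or of vehicle wells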
# MEASUREMENT PARAMETERS: S. cerevisiae deletion strains, growth OD, locus YGL086W, strain mad1, stronger effect = lower value
About 2,000 (36%) of roughly 5,500 compounds were called active. Another 18% or so got no clear call; they are omitted. The list shows a part of the results.
One threshold, 1, splits the recorded normalized growth values: lower ones are TRUE, equal or higher ones are FALSE.

Check out these entries, answers already filled in.
MOLECULE: O[N+]1=CC=CCC1=S.On1ccccc1=S.[Zn]
CLASS NAME: TRUE

MOLECULE: CCN(CC)CCOc1ccc(/C(=C(\Cl)c2ccccc2)c2ccccc2)cc1
CLASS NAME: TRUE

MOLECULE: C=C[C@](C)(O)CCC=C(C)C
CLASS NAME: FALSE

MOLECULE: CC(Cc1ccc(O)c(O)c1)C(C)Cc1ccc(O)c(O)c1 (stereo not given)
CLASS NAME: TRUE

MOLECULE: NCC(CC(=O)O)c1ccc(Cl)s1 (stereo not given)
CLASS NAME: TRUE

Input `Nc1ncnc2c1ncn2[C@@H]1O[C@H](CO)[C@@H](O)[C@H]1O` ; condition: normalized growth strictly below 1. Does it hold?
FALSE

Further, for Nc1nc2c(ncn2C2C[C@H](O)[C@@H](CO)O2)c(=O)[nH]1 (stereo not given in full) ?
TRUE

Further, for `CCC[C@H]1CC2=C(C[C@@H](CC)CC3=C1C(=O)OC3=O)C(=O)OC2=O` ?
FALSE

Further, for CC1(C)CC2C1(O)CCC1(C)C=CC(O)C21CO (stereo not given) ?
TRUE

Further, for `O=C(O)c1ccccc1Nc1cccc(C(F)(F)F)c1` ?
TRUE

Further, for `OC[C@@H](O)[C@@H](O[C@@H]1O[C@H](CO)[C@@H](O)[C@H](O)[C@H]1O)[C@H](O)[C@@H](O)CO` ?
FALSE

Further, for `Cc1ccc2cc3c(ccc4ccccc43)c3c2c1CC3` ?
TRUE

---

Catalogue of normalized growth values
# PROTOCOL: chemical genetic growth profiling, strain panel (AID 1159580);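 also: tested at 20 µM; growth read once vehicle control cultures reached saturation at 30 °C; 1 = growth at the plate median or of vehicle wells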
# MEASUREMENT PARAMETERS: S. cerevisiae deletion strains, growth OD, locus YKR026C, strain gcn3, stronger effect = lower value
Hit rate of the full screen: of about 5,500 compounds, about 2,000 (36%) were called active. Roughly 18% stayed inconclusive and do not appear here. The list shows a part of the results.
Enter the number alone.

COMPOUND: C=CC(C1=CC(=O)C(OC)=CC1=O)c1ccc(O)cc1 (stereo not given)
ENDPOINT: normalized growth
ASSAY RESULT: 1.01
--
COMPOUND: CC(=O)NCCCS(=O)(=O)O
ENDPOINT: normalized growth
ASSAY RESULT: 0.993
--
COMPOUND: CN[C@H](CC(=O)O)C(=O)O
ENDPOINT: normalized growth
ASSAY RESULT: 1.02
--
COMPOUND: Cc1ccsc1/C=C/C1=NCCCN1C
ENDPOINT: normalized growth
ASSAY RESULT: 0.994

What value of normalized growth has been reported for the following compound? `O=C(O)CF`
1.03

Further, for Nc1ncnc2c1ncn2C1C[C@H](O)[C@@H](CO)O1 (stereo not given in full) ?
1.02

Further, for `CN/C(=C\[N+](=O)[O-])NCCSCc1ccc(CN(C)C)o1` ?
1

Further, for `C[n+]1cccc(C(=O)[O-])c1` ?
0.952

Further, for `NC[C@H](O)c1ccc(O)c(O)c1` ?
1

Further, for CC(C)=CCC[C@](C)(O)C1CC=C(C)CC1 (stereo not given in full) ?
0.976

Further, for CC(C)(C)NCC(O)c1ccccc1Cl (stereo not given) ?
0.994

Further, for `CC(=O)NCCCCCC(=O)O` ?
0.963

Further, for `CS(=O)(=O)CCCCN=C=S` ?
0.866
